FYI, the data here is from the RepoRT retention time repository (doi:10.1016/j.foodchem.2021.129757).

LC retention time by entry:
- assayName: RP, Waters ACQUITY UPLC BEH Shield RP18, 150 × 2.1 mm, 1.7 µm, 40 °C, 0.4 mL/min, estimated dead time 0.83 min; A: water + 0.1% formic acid, pH 3; B: acetonitrile + 0.1% formic acid, pH 3; gradient (min/%B) 0/0 30/50 31/100 37/100 37.1/0
- conditionDescription: stereoisomer not certain
measuredProperty: LC retention time (min)

>>> measured("COc1cc(CC(=O)O)ccc1O")
10.3
>>> measured("OC1C(O)C(O)C(O)C(O)C1O (stereo not drawn)")
1.01
>>> measured("C=C1C(=O)OC2C3C(CO)=CC(=O)C3=C(C)CC(OC(=O)Cc3ccc(O)cc3)C12 (stereo not drawn)")
18.4
>>> measured("O=C1c2c(O)cc(O)cc2OC(c2ccc(O)cc2)C1O (stereo not drawn) [Dihydrokaempferol]")
15.3
>>> measured("OCC1OC(Oc2cc3c(O)cc(O)cc3[o+]c2-c2ccc(O)c(O)c2)C(O)C(O)C1O (stereo not drawn) [Cyanidin 3-O-glucoside]")
7.98
>>> measured("COc1ccc(C2CC(=O)c3c(O)cc(O)cc3O2)cc1O (stereo not drawn)")
21.2
>>> measured("C=C1C(=O)OC2C1CCC(C)=C1C(=O)C=C(CO)C12 (stereo not drawn)")
15.5
>>> measured("O=C(C=Cc1ccc(O)c(O)c1)OC1CC(O)(C(=O)O)CC(O)C1O (stereo not drawn)")
7.05
